test system: MYB mRNA; experiment: Gene panel canonical junction qPCR assay, decrease in CJ mRNA, Table 3; format: cell-based; details: decrease in CJ mRNA levels, canonical junction qPCR, gene panel
pIC50: −log10 of the molar value.
Quick list: pIC50 per entry.

Entry "CCNC1CCN(c2ccc(C(=O)Nc3cn4cc(C)nc(C)c4n3)c3nc(C)cn23)CC1" has what pIC50?
6.00 to 7.00

Repeat for the following compound: COc1nc2c(C(=O)Nc3cc(C)c4nn(C)cc4n3)ccc(N3C[C@H](C)N[C@@H](C)C3)c2s1 [Compound 738, 2,2,2-trifluoroacetate]
> 7.00

---

system: HTT mRNA; assay: Gene panel canonical junction qPCR assay, decrease in CJ mRNA, Table 3; type: cell-based; details: decrease in CJ mRNA levels, canonical junction qPCR, gene panel
Quick list: IC50 per entry.

- COc1nc2c(C(=O)Nc3cc(F)c4nn(C)cc4c3)ccc(N3CC[C@@H](NC(C)(C)C)C3)c2s1: 100 to 1000 nM
- COc1cc2nn(C)cc2cc1NC(=O)c1ccc(N2CCC(NC3CC3)CC2)n2cc(C)nc12: 1000 to 10000 nM
- C=CCNC1CCN(c2cc(O)c(C(=O)Nc3cc(CNS(C)(=O)=O)c4nn(C)cc4c3)c3nn(C)cc23)CC1: > 10000 nM
- COc1nc2c(C(=O)Nc3cn4cc(C)nc4c(OC)n3)ccc(N3C[C@H](C)N[C@@H](C)C3)c2s1 [Compound 759, 2,2,2-trifluoroacetate]: 1000 to 10000 nM
- Cc1cn2cc(NC(=O)c3ccc(N4CCC(NC5CC5)CC4)c4cn(C)nc34)nc2c(CNC(N)=O)n1: > 10000 nM
- Cc1cn2cc(NC(=O)c3ccc(N4CCC(NC5CC5)CC4)c4cn(C)nc34)nc2c(Cn2cnc3ncnc(N)c32)n1: 100 to 1000 nM

Entry Cc1cn2cc(NC(=O)c3ccc(NC(=O)C4CCCN4)c4[nH]cnc34)cc(F)c2n1 (centres unmarked) has what IC50?
1000 to 10000 nM

Repeat for the following compound: "COCCOCc1cc2c(N3CCC(NC4CC4)CC3)ccc(C(=O)Nc3cc(F)c4nc(C)cn4c3)n2n1"
100 to 1000 nM

Repeat for the following compound: "COc1c(NC(=O)c2ccc(N3CCC(NC4CC4)CC3)c3cn(C)nc23)cc2cn(C)nc2c1CNS(C)(=O)=O"
1000 to 10000 nM

Repeat for the following compound: "COc1nc2c(C(=O)Nc3cc(F)c4nc(C)nn4c3)ccc(N3C[C@H](C)N[C@@H](C)C3)c2s1"
1000 to 10000 nM

Repeat for the following compound: Cc1cn2cc(NC(=O)c3ccc(N4CCCC(N)C4)c4cn(C)nc34)nc2c(CNS(C)(=O)=O)n1 (centres unmarked)
> 10000 nM

Repeat for the following compound: Cc1cn2cc(NC(=O)c3ccc(N4CCC(NC5CC5)CC4)c4cn(C)nc34)nc2c(CN)n1 [Compound 734, bis(2,2,2-trifluoroacetate)]
> 10000 nM

Repeat for the following compound: "COc1nc2c(C(=O)Nc3cc(F)c4nn(C)cc4c3)ccc(N3C[C@H](C)N[C@@H](C)C3)c2o1"
100 to 1000 nM

Repeat for the following compound: "COc1nc2c(C(=O)Nc3cc(F)c4nn(C)cc4c3)ccc(N3C[C@H](C)N(C)[C@@H](C)C3)c2s1"
1000 to 10000 nM

Repeat for the following compound: "Cc1cn2nc(NC(=O)c3ccc(N4CCC(NC5CC5)CC4)c4cn(C)nc34)cc(CN)c2n1"
> 10000 nM

Repeat for the following compound: CC(c1cc(NC(=O)c2ccc(N3CCC(NC4CC4)CC3)c3cn(C)nc23)cc2cn(C)nc12)S(=O)(=O)N(C)C (centres unmarked)
> 10000 nM

Repeat for the following compound: "COc1nc2c(C(=O)Nc3cc(F)c4nn(C)cc4c3)ccc(N3CC[C@H](NC(C)(C)C)C3)c2s1"
100 to 1000 nM
